tested on: OVCAR-3; test: NCI tumour cell line growth inhibition, 48 h
Activity calls are given as the source filed them. Rule as the data show it: active = GI50 up to about 1.1 µM and inactive = higher.
Measured metric: GI50

# Molecule, Measured metric, Reported
measured = [
    ("CCOC(=O)C1=NN(c2ccccc2)C2=CC(C)=NN(C)C(=S)N21", "GI50", "> 100 µM (inactive)"),
    ("CN(C)CC1CC/C(=C\\c2ccc(O)cc2)C1=O (configuration not stated)", "GI50", "3.67 µM (inactive)"),
    ("CN(C)/C=N/S(=O)(=O)c1nn2c(C=O)c(-c3cc4ccccc4oc3=O)nc2s1", "GI50", "3.08 µM (inactive)"),
    ("COc1cc2c3c(c1OC)Oc1ccc(cc1)CC1c4c(cc(OC)c(OC)c4Oc4ccc(cc4)CC3N(C)CC2)CCN1C (configuration not stated)", "GI50", "18.6 µM (inactive)"),
    ("CNS(=O)(=O)NN(C)S(=O)(=O)c1ccc(C)cc1", "GI50", "> 100 µM (inactive)"),
    ("O=C(c1cc(Cl)cc(Cl)c1)N(Cc1cccnc1)C(=S)N(Cc1cccnc1)C(=O)c1cc(Cl)cc(Cl)c1", "GI50", "21.7 µM (inactive)"),
    ("C[B@@-]1(c2ccc(C(F)(F)F)cc2)N[C@@H](Cc2ccccc2)C(=O)O1", "GI50", "> 100 µM (inactive)"),
    ("CCOC(=O)C(Cc1ccc2c(c1)CCC2)(Cc1ccc2c(c1)CCC2)C(=O)OCC", "GI50", "26.1 µM (inactive)"),
    ("O=C(/C=N/O)Nc1cccc(Cl)c1I", "GI50", "30.1 µM (inactive)"),
    ("Cc1nn(C(=O)c2ccc(Cl)cc2)c2c1C(c1ccc(Cl)cc1)SC(=N)N2 (configuration not stated)", "GI50", "> 10 µM (inactive)"),
    ("CCOP(=O)(OCC)C(Nc1ccc(Cl)cc1)c1ccc(F)cc1 (configuration not stated)", "GI50", "29.5 µM (inactive)"),
    ("O=C(O)c1[nH]c2c([N+](=O)[O-])cc([N+](=O)[O-])cc2c1C(=O)O", "GI50", "> 100 µM (inactive)"),
    ("C=CC[C@@]1(C(=O)OC)[C@H](Sc2ccccc2)C1(C)C", "GI50", "44.3 µM (inactive)"),
    ("CC(C)(C)c1cc(C(C)(C)C)c2sc(=S)oc2c1O", "GI50", "5.14 µM (inactive)"),
    ("CCOC(=O)C1=C(Nc2ccc(Cl)c(Cl)c2)OC/C1=N\\NC(=O)Cc1ccccc1", "GI50", "> 100 µM (inactive)"),
    ("COc1ccc(C(=O)CCN(C)C)c2ccccc12", "GI50", "16.3 µM (inactive)"),
    ("O=C(/C=C/c1ccccc1)CCc1c(O)c2ccccc2oc1=O", "GI50", "49.4 µM (inactive)"),
    ("C=C1CN=C(Nc2ccc(Cl)cc2)S1", "GI50", "> 100 µM (inactive)"),
    ("C/C(=N\\N=C(N)N)c1sc(-c2nc(C)c(/C(C)=N/N=C(N)N)s2)nc1C", "GI50", "> 85.5 µM (inactive)"),
    ("Cc1ccc2c(O)cc(-c3cccs3)nc2n1", "GI50", "14.3 µM (inactive)"),
    ("Cc1cc(N(CCC#N)CCC#N)ccc1C(/N=N/c1ccc([N+](=O)[O-])cc1)=N\\NC(=O)c1ccccc1", "GI50", "46.1 µM (inactive)"),
    ("CC(=O)COC(=O)CC(C)=O", "GI50", "> 100 µM (inactive)"),
]

====

system: CAKI-1; experiment: NCI tumour cell line growth inhibition, 48 h
Calls of active or inactive are those of the source. Cut-off read from the data, not from the text of the source: active = GI50 up to about 1.1 µM and inactive = higher.
This section presents compounds with their documented GI50 values.
Measured metric: GI50

# Smiles input, Subject of test, Reported
data = [
    ("Clc1ccc(-c2cc(-c3nc4ccccc4[nH]3)no2)cc1", "CAKI-1", "18.3 µM (inactive)"),
    ("Cc1ccsc1/C=N/Nc1ccc2ccccc2n1", "CAKI-1", "17.5 µM (inactive)"),
    ("Cc1nc(C)c(N2CCNCC2)c(O)n1", "CAKI-1", "> 100 µM (inactive)"),
    ("c1ccc(SCCCC(Sc2ccccc2)Sc2ccccc2)cc1", "CAKI-1", "> 100 µM (inactive)"),
    ("O=c1c2cccnc2ncn1CCCN1CCCCC1", "CAKI-1", "> 100 µM (inactive)"),
    ("O=C(CC(=O)n1nc(-c2ccccc2)c(/N=N/c2ccccc2Cl)c1-c1ccccc1)Nc1ccc(Cl)cc1", "CAKI-1", "> 100 µM (inactive)"),
    ("Cc1cn2c(/C=C3/C(=O)Nc4ccccc43)c(C)nc2s1", "CAKI-1", "3.07 µM (inactive)"),
]

====

tested on: SF-539; assay: NCI tumour cell line growth inhibition, 48 h
Calls of active or inactive are those of the source. No stated cut-off is given here; in the data, active = GI50 up to about 1.1 µM and inactive = higher.

# Compound, GI50
data = [
    ("O=c1[nH]ncc2[nH]c3c(c12)CCCc1ccccc1-3", "30.1 µM (inactive)"),
    ("Cc1ccc(S(=O)(=O)NC(=O)NC23CC4CC(CC(F)(C4)C2)C3)cc1", "> 100 µM (inactive)"),
    ("Oc1ccc2ccccc2c1-c1nnc(CCCCCCCCc2nnc(-c3c(O)ccc4ccccc34)o2)o1", "1.52 µM (inactive)"),
    ("C[C@]12CC[C@@H]3c4cc(Br)c(O)c(Br)c4CC[C@H]3[C@@H]1CC(Br)C2=O (stereo not given in full)", "7.52 µM (inactive)"),
    ("Cc1ccc2c(O)cc(-c3cccs3)nc2n1", "8.49 µM (inactive)"),
    ("O=C1/C(=C/c2ccc(F)cc2)CNC/C1=C\\c1ccc(F)cc1", "0.865 µM (active)"),
    ("COc1nc(C#CC(C)(C)C)nc(OC)n1", "28.8 µM (inactive)"),
    ("c1ccc(C2=NOC(c3ccccc3)N2C23CC4CC(CC(C4)C2)C3)cc1 (stereo not given)", "> 10 µM (inactive)"),
    ("CC(C(=O)OCc1ccccc1)N(Cc1ccccc1)Cc1ccccc1 (stereo not given)", "> 100 µM (inactive)"),
    ("O=C1c2ccccc2C(=O)c2c(NCC(O)CO)ccc(NCC(O)CO)c21 (stereo not given)", "62.1 µM (inactive)"),
]

====

test system: HCC 2998; test: NCI tumour cell line growth inhibition, 48 h
Activity calls are given as the source filed them. Rule as the data show it: active = GI50 up to about 1.1 µM and inactive = higher.
This section presents compounds with their documented GI50 values.

# Compound, GI50
records = [
    ("C=C1CCN2CC[C@@H](OC(=O)/C(C)=C\\C)[C@@H]12", "> 100 µM (inactive)"),
    ("O=C1CCC2(c3ccc(Cl)cc3)Nc3ccccc3N12 (centres undefined)", "> 100 µM (inactive)"),
    ("CCOC(=O)C(Cc1ccc2c(c1)CCC2)(Cc1ccc2c(c1)CCC2)C(=O)OCC", "49 µM (inactive)"),
    ("Cc1cc(S(=O)(=O)[N-]C(=C(C#N)C#N)[n+]2ccc(N(C)C)cc2)c(SCC(=O)O)cc1Cl", "> 100 µM (inactive)"),
    ("CCC1(c2c(F)c(F)c(N)c(F)c2F)CCC(=O)NC1=O (centres undefined)", "> 100 µM (inactive)"),
    ("O=c1[nH]ncc2[nH]c3c(c12)CCCc1ccccc1-3", "27.9 µM (inactive)"),
    ("O=C(CC(C(=O)c1ccsc1)c1ccccc1)c1ccccc1 (centres undefined)", "> 100 µM (inactive)"),
    ("Cc1nc2c(=O)[nH]c(=O)n(C)c2[nH]c1=O.c1ccncc1", "> 100 µM (inactive)"),
    ("CCCCON1C[C@H](OC(C)=O)C(OC(C)=O)[C@H](OC(C)=O)C1 (some centres undefined)", "> 100 µM (inactive)"),
    ("CN1CCCC2(CCCc3ccccc32)C1 (centres undefined)", "> 100 µM (inactive)"),
    ("O=C(/C=C/c1ccccc1)C[C@@H](O)C[C@@H]1CC=CC(=O)O1", "5.93 µM (inactive)"),
    ("CC1OC(OC2C(CO)OC(O[C@H]3CC[C@@]4(C)C(=CC[C@H]5[C@@H]6C[C@@H]7O[C@](O)(CC[C@@H](C)COC8OC(CO)C(O)C(O)C8O)[C@@H](C)[C@@H]7[C@@]6(C)CC[C@@H]54)C3)C(OC3OC(C)C(O)C(O)C3O)C2O)C(O)C(O)C1O (some centres undefined)", "2.9 µM (inactive)"),
    ("O=C(CC(=O)n1nc(-c2ccccc2)c(/N=N/c2ccccc2Cl)c1-c1ccccc1)Nc1ccc(Cl)cc1", "> 100 µM (inactive)"),
    ("COc1cccc(NC(=O)CC(=O)N2N=C(C)C(/N=N/c3ccc(C(=O)O)cc3)C2=O)c1 (centres undefined)", "> 100 µM (inactive)"),
    ("COc1cccc(C2SCc3nc4ccccc4n32)c1 (centres undefined)", "45.6 µM (inactive)"),
    ("CC(=O)NNc1nc(C)c(C(=O)NNC(=O)C(=O)Nc2c(C)cccc2C(C)(C)C)s1", "25.6 µM (inactive)"),
    ("Clc1nncc2sc(-c3ccccc3)nc12", "8.45 µM (inactive)"),
    ("C[C@@H]1OC(=O)C[C@H]2CC(=O)N(CCC3CN(S(=O)(=O)C(F)(F)F)c4ccccc43)C[C@@H]21 (some centres undefined)", "> 100 µM (inactive)"),
    ("CCOC(=O)NC(Nc1ccc(C(=O)O)cc1)(C(F)(F)F)C(F)(F)F", "> 100 µM (inactive)"),
]

Where do the numbers come from? From ChEMBL document CHEMBL1201862.
